growth inhibition overview
assay_notes: NCI Yeast Anticancer Drug Screen. Data for the bub3 strain (AID 167)
condition_context: S. cerevisiae bub3 mutant strain, at 50.0 µM, hits give high values
Compounds without any hit were thinned out: in the full panel of roughly 79,000, 15% have a hit.
Answer with a number only, understood to be in %.

Guide cases for growth inhibition, answers given:
| molecule | growth inhibition [%] |
| --- | --- |
| C1CC[N-]CC1.CC(=N\O)/C(C)=N/O.CC(=N\O)/C(C)=N/O.N#C[CH-]CC#N.[Co+2] | 28.5 |
| NC(=O)C1(Cl)CCCCC1 | -6.1 |
| CCN(CC)CCN1C(=O)NC(=O)C(CC)(c2ccccc2)C1=O (stereo not given) | 8.05 |
| CC1(C)SC2C(NC(=O)COc3ccccc3)C(=O)N2C1C(=O)O (stereo not given) (tested in a mixture with another compound) | -2.15 |

### Prompt Any idea what growth inhibition was measured for CCCCSP(SCCCC)N1CCCCC1 ?
### Response 79.8

====

assay_notes: NCI Yeast Anticancer Drug Screen. Data for the bub3 strain (AID 167)
condition_context: S. cerevisiae bub3 mutant strain, at 50.0 µM, hits give high values
About 79,000 compounds went through this panel and 15% of them were active in at least one assay; those are over-represented in the sample as a whole.
growth inhibition overview
Answer with a number only, understood to be in %.

Guide cases for growth inhibition, answers given:
| compound | scale_unit | value_reported |
| --- | --- | --- |
| O=[N+]([O-])c1ccc(O)c(CBr)c1 | % | 13.9 |
| c1ccc2cc(C3NCCc4[nH]cnc43)ccc2c1 (stereo unspecified) | % | -7.7 |
| Sc1nc2ccccc2s1.Sc1nc2ccccc2s1.Sc1nc2ccccc2s1.Sc1nc2ccccc2s1.[Cl][Rh][Cl] | % | 96.8 |
| CC1CN(C2CCCCC2)CO1 (stereo unspecified) | % | -20.5 |
| CC(C)(C)[Si](OC(=O)N(CCCl)CCCl)(c1ccccc1)c1ccccc1 | % | 68.6 |

### Prompt Any idea what growth inhibition was measured for CN(C)CCSC(c1ccccc1)c1ccc(Br)cc1 (stereo unspecified) ?
### Response 34.4

====

assay_notes: NCI Yeast Anticancer Drug Screen. Data for the sgs1 mgt1 strain (AID 161);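 further: 0% = growth of cultures given vehicle only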
condition_context: S. cerevisiae sgs1 mgt1 strain, at 50.0 µM
Experimental: Growth inhibition of yeast strains with defined genetic alterations is measured as a screen for potential anti-cancer activity. Selected strains with alterations in DNA damage repair or cell cycle control were exposed to compounds and growth inhibition was measured relative to vehicle treated controls. The strain used in this assay is sgs1 mgt1
About 79,000 compounds went through this panel and 15% of them were active in at least one assay; those are over-represented in the sample as a whole. The source made the active and inactive calls. Cut-off read from the data, not from the text of the source: active = growth inhibition above about 70%; inactive = the rest.
Permitted responses: active, inactive

| molecule | label_class |
| --- | --- |
| COc1ccc2nc3ccccc3nc2c1 (tested in a mixture with another compound) | inactive |
| CC(=O)OC[C@]12C[C@H](OC(=O)CC(C)C)C(C)=C[C@H]1OC1[C@H](O)[C@@H](OC(C)=O)[C@@]2(C)[C@@]12CO2 | active |

Please examine the following record next.
### Prompt Please indicate how the test categorized CC(C)N1CC(COc2cccc3ccccc23)OP1(=O)N(CCCl)CCCl (stereo not given) .
### Response inactive

====

assay_notes: NCI Yeast Anticancer Drug Screen. Data for the mec2-1 strain (AID 157)
condition_context: S. cerevisiae mec2-1 strain, at 50.0 µM, hits give high values
This is part of a sample that, as a whole, favours compounds with a hit. Of some 79,000 tested, about 15% had one in any assay.
growth inhibition overview
Answer with a number only, understood to be in %.

### Prompt Any idea what growth inhibition was measured for N/C(=N\N=C\c1ccccc1O)N[N+](=O)[O-] ?
### Response -22.9

### Prompt Any idea what growth inhibition was measured for COc1ccc(C=C2C(=O)N(C)C(=O)N(C)C2=O)cc1 ?
### Response 2.1

### Prompt Any idea what growth inhibition was measured for CC1=C(C#N)C2(CCN(C)CC2)C(C#N)=C(C)N1 ?
### Response 8.75

### Prompt Any idea what growth inhibition was measured for O=[N+]([O-])/C=C\c1ccc2c(c1)OCO2 ?
### Response 99.5

### Prompt Any idea what growth inhibition was measured for CCCCN1C(=O)C(=C/C=C/C=C2\Oc3ccccc3N2CCCS(=O)(=O)O)C(=O)N(CCCC)C1=S ?
### Response 2.9

### Prompt Any idea what growth inhibition was measured for O=C1C(C(Nc2ccccc2)c2ccccc2)=C([O-])c2ccccc21.O=C1C(C(Nc2ccccc2)c2ccccc2)=C([O-])c2ccccc21.[Cu+2] (stereo not given) ?
### Response -1.5

### Prompt Any idea what growth inhibition was measured for CN(C)C(=S)Oc1ccc(S(=O)(=O)F)cc1 ?
### Response 17.2

### Prompt Any idea what growth inhibition was measured for CN1CNC2C(=O)CCC2c2ccccc21 (stereo not given) ?
### Response -39.8

### Prompt Any idea what growth inhibition was measured for O=C(CBr)OC1CCCCC1 ?
### Response 69.4

### Prompt Any idea what growth inhibition was measured for Cc1cccc(C=NCCOCCOCCN=Cc2cccc(C)c2O)c1O.[Ni] ?
### Response 2.65

### Prompt Any idea what growth inhibition was measured for CN(C(=[Se])[Se]C(=[Se])N(C)C1CCCCC1)C1CCCCC1 ?
### Response 5

### Prompt Any idea what growth inhibition was measured for N#C[S-].[Ce+3].c1cnc2c(c1)ccc1cccnc12.c1cnc2c(c1)ccc1cccnc12.c1cnc2c(c1)ccc1cccnc12 ?
### Response 94.8

### Prompt Any idea what growth inhibition was measured for O=C(c1ccccc1)c1c(CC(O)c2cccnc2)n(C(=O)c2ccccc2)c2ccccc12 (stereo not given) ?
### Response 89.2

### Prompt Any idea what growth inhibition was measured for O=NN1CCOCC1 ?
### Response 11.1

### Prompt Any idea what growth inhibition was measured for Cc1ccc2c(C)c3ccc4ccccc4c3c[n+]2c1 ?
### Response 83.5

### Prompt Any idea what growth inhibition was measured for COc1ccc2c(c1O)[C@@]13C=C(O)C(=O)C=C1[C@@H](C2)N(C)CC3 ?
### Response 4.6

### Prompt Any idea what growth inhibition was measured for CCC(=O)N(c1ccccc1)C(C)CN1CCC(O)(c2ccccc2)CC1 (stereo not given) ?
### Response -12.4

### Prompt Any idea what growth inhibition was measured for CCCCNC(c1ccc(OC)cc1)C(O)c1ccc(OC)cc1 (stereo not given) ?
### Response -17.3
